ASSAY_NOTES: pKa of the phosphoryl moieties by 31P NMR titration
Assay type: physicochemical
REPORTED_CONDITIONS: from Pβ resonance shift on acidification of aqueous solution; represents a maximum pKa value
Procedure: In order to further assess the potential for chalcogen-substituted pyrophosphate linkages to enable targeted drug delivery, the pKa values of the phosphoryl moieties were assessed using ^31P NMR titration. […]
VALUE_KIND: pKa
Numbers only.

{"columns": ["MOL_SMILES", "NUMERIC_READOUT"],
 "data": [
  ["Nc1ncnc2c1ncn2[C@@H]1O[C@H](COP(=O)(O)OP(=O)(O)SC[C@H]2O[C@@H](n3cnc4c(N)ncnc43)[C@H](O)[C@@H]2O)[C@@H](O)[C@H]1O", 3],
  ["Nc1ncnc2c1ncn2[C@@H]1O[C@H](COP(=O)(O)OP(=O)(O)[Se]C[C@H]2O[C@@H](n3cnc4c(N)ncnc43)[C@H](O)[C@@H]2O)[C@@H](O)[C@H]1O", 3.3],
  ["Cc1cn([C@H]2C[C@H](O)[C@@H](C[Se]P(=O)(O)OP(=O)(O)OC[C@H]3O[C@@H](n4cnc5c(N)ncnc54)[C@H](O)[C@@H]3O)O2)c(=O)[nH]c1=O", 3.4]
]}

Reported pKa for Cc1cn([C@H]2C[C@H](O)[C@@H](CSP(=O)(O)OP(=O)(O)OC[C@H]3O[C@@H](n4cnc5c(N)ncnc54)[C@H](O)[C@@H]3O)O2)c(=O)[nH]c1=O was 3.2
